target: EGFR L858R/T790M/C797S (Homo sapiens, UniProt P00533, C797S/L858R/T790M); assay: Biochemical EGFR kinase assay (Lance Ultra TR-FRET), triple mutant L858R/T790M/C797S; conditions: IC50 L858R/T790M/C797S, 100 μM ATP
Sequence (P00533 25-1210 T790M/C797S/L858R): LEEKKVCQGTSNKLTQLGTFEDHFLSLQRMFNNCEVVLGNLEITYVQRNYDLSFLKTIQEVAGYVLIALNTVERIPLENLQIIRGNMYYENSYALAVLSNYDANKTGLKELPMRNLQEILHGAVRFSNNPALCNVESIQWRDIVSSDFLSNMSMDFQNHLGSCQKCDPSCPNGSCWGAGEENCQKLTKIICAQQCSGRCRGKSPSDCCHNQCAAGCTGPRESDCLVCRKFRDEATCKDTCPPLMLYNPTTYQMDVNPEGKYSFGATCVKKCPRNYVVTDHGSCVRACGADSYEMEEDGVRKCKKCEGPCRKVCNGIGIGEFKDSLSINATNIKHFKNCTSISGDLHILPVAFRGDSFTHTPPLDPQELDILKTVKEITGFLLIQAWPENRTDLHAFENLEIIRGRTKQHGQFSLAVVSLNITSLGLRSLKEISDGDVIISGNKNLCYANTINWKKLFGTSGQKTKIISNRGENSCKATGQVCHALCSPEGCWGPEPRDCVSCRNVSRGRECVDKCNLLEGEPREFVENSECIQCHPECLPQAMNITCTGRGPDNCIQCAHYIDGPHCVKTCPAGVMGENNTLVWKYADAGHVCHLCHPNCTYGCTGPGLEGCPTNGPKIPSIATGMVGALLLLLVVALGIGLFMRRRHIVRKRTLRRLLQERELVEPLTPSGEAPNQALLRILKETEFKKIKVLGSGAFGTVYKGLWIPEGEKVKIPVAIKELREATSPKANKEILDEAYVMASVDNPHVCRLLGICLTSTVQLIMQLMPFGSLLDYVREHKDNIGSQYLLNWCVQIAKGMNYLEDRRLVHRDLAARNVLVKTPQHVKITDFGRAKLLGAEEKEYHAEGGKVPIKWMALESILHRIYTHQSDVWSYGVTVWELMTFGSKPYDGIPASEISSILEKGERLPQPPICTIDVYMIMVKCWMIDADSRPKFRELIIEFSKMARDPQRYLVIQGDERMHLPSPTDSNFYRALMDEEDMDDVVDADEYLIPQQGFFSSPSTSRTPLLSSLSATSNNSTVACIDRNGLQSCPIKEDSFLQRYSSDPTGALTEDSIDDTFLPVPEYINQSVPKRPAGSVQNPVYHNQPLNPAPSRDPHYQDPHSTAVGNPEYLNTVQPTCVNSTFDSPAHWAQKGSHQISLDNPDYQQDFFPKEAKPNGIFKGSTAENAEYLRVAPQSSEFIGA
value-type: IC50 (nM)

compound	value-type	value-reported
CC(C)(O)[C@H]1CC[C@@H](Nc2cc(Nc3ccnc(-c4cnn(S(=O)(=O)C5CC5)c4)n3)ncc2-c2cccc(CC(F)(F)F)n2)CC1 [Example 247]	IC50	2.6

P: CC1(O)CCC(Nc2cc(Nc3ccnc(-c4cnn(S(=O)(=O)C5CC5)c4)n3)ncc2-c2cc(S(C)(=O)=O)ccn2)CC1 (stereo not drawn) [Example 198]
Q: CN1CCN(C(=O)c2ccc(-c3cnc(Nc4ccnc(-c5cnn(S(=O)(=O)C6CC6)c5)n4)cc3N[C@H]3CC[C@@H](CN(C)C)CC3)nc2)CC1 [Example 204]
Between the entries labelled P and Q , which has a larger IC50 value on record? Give the label under which the chosen entry appears.
P
(P: 0.4 nM, Q: 0.1 nM)
